The measured values listed here are drawn from paper PMC7417555.

- assayed-system: FUBP1 KH2-3 (UniProt Q96AE4 185-339)
- Sequence (Q96AE4 185-339): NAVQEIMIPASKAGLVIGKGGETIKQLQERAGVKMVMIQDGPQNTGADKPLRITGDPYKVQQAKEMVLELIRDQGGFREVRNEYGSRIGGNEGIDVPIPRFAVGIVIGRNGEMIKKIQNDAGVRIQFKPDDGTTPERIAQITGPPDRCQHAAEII
- experiment: ITC; 150 mM NaCl; range given for the three tandems; ITC: 25 mM HEPES pH 7.5, 50 mM NaCl (150 mM for tandem and KH1-4), 0.5 mM TCEP, 20 C; native PAGE: 200 uM protein, 5x ssDNA, 25 mM HEPES pH 7.5, 50 mM NaCl, 0.5 mM TCEP, 4 C, 0.5x TBE (KH4 0.5x TAE)
- conditions: protein: recombinant; tags: His6 removed by TEV

{"columns": ["binder", "Kd"],
 "data": [
  ["ATGTATATTCCCTCGGGATTTTTTATTTTGTGTTATTCCACGGCATG (ssDNA) [47-mer c-Myc FUSE]", "~5.29 µM"]
]}
